target: EGFR^L858R (Homo sapiens, UniProt P00533, L858R); experiment: in vitro kinase assay (HTRF KinEASE-TK kit), L; conditions: kinase inhibition
Sequence (P00533 25-1210 L858R): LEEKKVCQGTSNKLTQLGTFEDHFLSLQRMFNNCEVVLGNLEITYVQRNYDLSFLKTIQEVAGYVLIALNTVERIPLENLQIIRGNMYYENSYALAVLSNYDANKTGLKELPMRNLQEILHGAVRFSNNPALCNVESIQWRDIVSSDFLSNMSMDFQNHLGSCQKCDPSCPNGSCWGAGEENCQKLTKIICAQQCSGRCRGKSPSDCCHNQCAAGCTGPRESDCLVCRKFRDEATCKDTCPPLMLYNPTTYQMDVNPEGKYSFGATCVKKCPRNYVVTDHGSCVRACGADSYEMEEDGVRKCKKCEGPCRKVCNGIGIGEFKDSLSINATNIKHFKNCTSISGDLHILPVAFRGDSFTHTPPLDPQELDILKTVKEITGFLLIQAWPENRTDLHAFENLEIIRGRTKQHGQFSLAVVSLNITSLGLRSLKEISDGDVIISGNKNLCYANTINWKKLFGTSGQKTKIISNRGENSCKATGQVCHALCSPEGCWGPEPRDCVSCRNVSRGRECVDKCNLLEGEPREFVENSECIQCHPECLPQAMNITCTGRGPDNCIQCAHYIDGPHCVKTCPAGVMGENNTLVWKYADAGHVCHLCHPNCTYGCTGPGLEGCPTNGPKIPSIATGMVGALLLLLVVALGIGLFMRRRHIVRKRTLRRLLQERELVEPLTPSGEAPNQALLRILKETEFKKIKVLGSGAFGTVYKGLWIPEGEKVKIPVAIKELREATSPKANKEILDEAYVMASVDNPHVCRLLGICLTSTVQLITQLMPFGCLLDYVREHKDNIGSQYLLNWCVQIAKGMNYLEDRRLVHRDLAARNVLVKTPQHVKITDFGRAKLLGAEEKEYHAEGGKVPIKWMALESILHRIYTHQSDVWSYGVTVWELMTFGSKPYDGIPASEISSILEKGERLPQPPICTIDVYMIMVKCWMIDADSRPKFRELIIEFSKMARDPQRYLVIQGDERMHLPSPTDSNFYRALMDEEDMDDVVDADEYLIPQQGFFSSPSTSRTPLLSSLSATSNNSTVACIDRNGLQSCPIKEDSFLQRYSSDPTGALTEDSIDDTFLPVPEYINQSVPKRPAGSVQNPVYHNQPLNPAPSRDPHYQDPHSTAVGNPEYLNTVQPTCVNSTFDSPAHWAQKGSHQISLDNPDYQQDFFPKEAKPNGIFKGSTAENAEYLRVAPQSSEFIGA
pIC50: −log10 of the molar value.
quantity kind: pIC50

Sample C[C@H]1CCOc2c(cnn2C)-c2nccc(n2)Nc2cc3c(cn2)c(-c2ccc(F)c(OCCN(C)C)c2)nn31 [(131)] — what was its pIC50?
> 8.00

Look up pIC50: CCn1ccc(-c2nn3c4cc(ncc24)Nc2ccnc(n2)-c2cnn(C)c2OCCCC3C)n1 (centres unmarked) [(85)]
7.00 to 8.00

Which pIC50 is listed for CCN(CC)Cc1ccc(-c2nn3c4cc(ncc24)Nc2ccnc(n2)-c2cnn(C)c2OCC[C@@H]3C)n1C [(137)] ?
> 8.00

GET /values?readout=pIC50&item= CCN1CCc2c(cc(-c3nn4c5cc(ncc35)Nc3ccnc(n3)-c3cnn(C)c3OCC[C@@H]4C)n2C)C1C (some centres unmarked) [(161)]
> 8.00

Endpoint output: pIC50 of C[C@H]1CCOc2c(cnn2C)-c2nccc(n2)Nc2cc3c(cn2)c(-c2cc(F)cc(OCCN(C)C)c2)nn31 [(129)] . Value?
7.00 to 8.00

Value lookup for pIC50; key = C[C@H]1CCOc2c(cnn2C)-c2nccc(n2)Nc2cc3c(cn2)c(-c2cc(CN4CCN(C5CC5)CC4)n(C)c2)nn31 [(147)]
> 8.00

Kindly give each listed record's pIC50.
1. Cn1ncc2c1OCCCn1nc(N3CCC3)c3cnc(cc31)Nc1ccnc-2n1 [(3)]
2. C[C@H]1CCOc2c(cnn2C)-c2nccc(n2)Nc2cc3c(cn2)c(N2CC[C@H](N(C)CCF)C2)nn31 [(170)]

7.00 to 8.00
> 8.00
